Answer each item with its documented inhibition.
- TARGET: 3',5'-cyclic-AMP phosphodiesterase 4B (Homo sapiens)
- Sequence (Q07343 whole entry): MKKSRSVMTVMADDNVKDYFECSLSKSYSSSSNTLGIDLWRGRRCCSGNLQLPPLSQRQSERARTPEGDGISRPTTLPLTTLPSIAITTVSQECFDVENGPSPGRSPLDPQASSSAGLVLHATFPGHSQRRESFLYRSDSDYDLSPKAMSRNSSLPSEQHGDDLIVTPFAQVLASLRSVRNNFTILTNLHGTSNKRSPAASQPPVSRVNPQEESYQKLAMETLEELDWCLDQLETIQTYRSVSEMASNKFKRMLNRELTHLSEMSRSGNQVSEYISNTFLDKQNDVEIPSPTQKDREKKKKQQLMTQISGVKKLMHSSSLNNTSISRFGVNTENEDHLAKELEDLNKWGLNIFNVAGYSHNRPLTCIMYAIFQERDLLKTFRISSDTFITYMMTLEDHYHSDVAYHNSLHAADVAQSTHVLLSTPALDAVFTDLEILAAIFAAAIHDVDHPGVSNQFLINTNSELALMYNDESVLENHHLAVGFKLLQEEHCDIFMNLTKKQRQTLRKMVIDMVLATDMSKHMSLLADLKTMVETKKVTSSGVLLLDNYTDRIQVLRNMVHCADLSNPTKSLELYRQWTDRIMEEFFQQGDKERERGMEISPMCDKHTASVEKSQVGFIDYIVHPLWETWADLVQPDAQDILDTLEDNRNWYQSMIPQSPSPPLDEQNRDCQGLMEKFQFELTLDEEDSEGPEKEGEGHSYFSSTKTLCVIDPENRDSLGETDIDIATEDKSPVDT
- ASSAY PROCEDURE: Inhibition of recombinant PDE4B1 (unknown origin) expressed in Sf9 cells at 30 uM pre-incubated with compound for 15 mins before incubation with cAMP substrate for 1 hr
Be sure to follow the number with its unit.

Ask | Tell me the measured inhibition of CCOC(=O)C1=CN(Cc2ccc(C(F)(F)F)cc2)C=C(C(=O)OCC)C1c1ccc(O)cc1 , please.
Reply | 35%

Ask | Look up inhibition: CCOC(=O)C1=CN(Cc2ccc(OC)cc2)C=C(C(=O)OCC)C1c1ccc([N+](=O)[O-])cc1
Reply | 38%

Ask | Requested field: inhibition. Item: CCOC(=O)C1=CN(c2ccc(Cl)cc2)C=C(C(=O)OCC)C1c1ccc(Cl)cc1
Reply | 23%

Ask | Recorded inhibition for CCOC(=O)C1=CN(Cc2ccc(OC)c(OC)c2)C=C(C(=O)OCC)C1Cc1ccccc1 , please?
Reply | 79%

Ask | inhibition lookup needed for CCOC(=O)C1=CN(Cc2ccc(OC)c(OC)c2)C=C(C(=O)OCC)C1c1c[nH]c2ccccc12 , thanks.
Reply | 95%

###

- TARGET: 3',5'-cyclic-AMP phosphodiesterase 4B (Homo sapiens)
- ASSAY PROCEDURE: Inhibition of recombinant PDE4B1 (unknown origin) expressed in Sf9 cells at 30 uM pre-incubated with compound for 15 mins before incubation with cAMP substrate for 1 hr
Please enter satisfied where inhibition is greater than or equal to 30%, and not satisfied where it is lower.

Ask | Tell me whether inhibition is at least 30% here: CCOC(=O)C1=CN(c2ccc(Cl)cc2)C=C(C(=O)OCC)C1Cc1ccccc1
Reply | satisfied

Ask | For this molecule, is measured inhibition 30% or higher? CCOC(=O)C1=CN(Cc2cccc(Cl)c2)C=C(C(=O)OCC)C1Cc1ccccc1
Reply | satisfied

Ask | Hello, I need to know if CCOC(=O)C1=CN(Cc2ccc(OC)cc2)C=C(C(=O)OCC)C1c1cccc(F)c1 has measured inhibition not below 30%. Thanks!
Reply | not satisfied

Ask | Is inhibition at least 30%? Consider C=CCN1C=C(C(=O)OCC)C(c2ccc(O)cc2)C(C(=O)OCC)=C1
Reply | satisfied

Ask | Has CCOC(=O)C1=CN(Cc2ccc(Cl)cc2)C=C(C(=O)OCC)C1c1ccc(Cl)cc1 a recorded inhibition greater than or equal to 30%?
Reply | not satisfied

###

- TARGET: UniProtKB Q07343
- ASSAY PROCEDURE: Inhibition of recombinant PDE4B1 (unknown origin) expressed in Sf9 cells at 30 uM pre-incubated with compound for 15 mins before incubation with cAMP substrate for 1 hr
Could you please report measured inhibition for the items listed next?
I only need the number, in %, no unit after it.

Ask | Report inhibition for CCOC(=O)C1=CN(c2ccc(OC)cc2)C=C(C(=O)OCC)C1c1ccc(Cl)cc1 please.
Reply | 33

Ask | Quick one: inhibition for CCCCCCCCCCCCCCCCN1C=C(C(=O)OCC)C(c2ccc(OC)cc2)C(C(=O)OCC)=C1 ?
Reply | 17

Ask | Endpoint output: inhibition of CCOC(=O)C1=CN(Cc2ccccc2Cl)C=C(C(=O)OCC)C1c1ccc(O)cc1 . Value?
Reply | 49

Ask | Quick one: inhibition for CCOC(=O)C1=CN(Cc2ccc(OC)cc2)C=C(C(=O)OCC)C1c1ccc(Cl)cc1 ?
Reply | 23

Ask | Please report the recorded inhibition for CCOC(=O)C1=CN(Cc2ccc3c(c2)OCO3)C=C(C(=O)OCC)C1c1ccc(OC)cc1 .
Reply | 42

Ask | # inhibition lookup, item CCOC(=O)C1=CN(Cc2ccccc2OC)C=C(C(=O)OCC)C1C1CC1
Reply | 48

Ask | // lookup inhibition for CCOC(=O)C1=CN(Cc2ccc(OC)c(OC)c2)C=C(C(=O)OCC)C1c1cccc([N+](=O)[O-])c1
Reply | 88

Ask | Value lookup for inhibition; key = CCOC(=O)C1=CN(CC2CCCCC2)C=C(C(=O)OCC)C1c1ccc(Cl)cc1
Reply | 28

Ask | Look at this compound and give its reported inhibition. CCOC(=O)C1=CN(Cc2ccc(OC)c(OC)c2)C=C(C(=O)OCC)C1c1cccc2ccccc12
Reply | 75

Ask | I would be grateful if you could share the reported inhibition for CCOC(=O)C1=CN(Cc2ccc3c(c2)OCO3)C=C(C(=O)OCC)C1c1ccc(O)cc1 .
Reply | 72

Ask | For the compound CCOC(=O)C1=CN(Cc2ccc(C(F)(F)F)cc2)C=C(C(=O)OCC)C1c1ccc(OC)cc1 , what inhibition is on record?
Reply | 21

Ask | Look at this compound and give its reported inhibition. CCOC(=O)C1=CN(Cc2ccc(OC)c(OC)c2)C=C(C(=O)OCC)C1c1ccc(Cl)cc1
Reply | 80

Ask | What measured inhibition goes with CCOC(=O)C1=CN(Cc2ccc(Cl)cc2)C=C(C(=O)OCC)C1c1cccc(F)c1 ?
Reply | 8

Ask | For CCOC(=O)C1=CN(c2ccccc2)C=C(C(=O)OCC)C1c1ccc(Cl)cc1 , what is its reported inhibition?
Reply | 30.5

Ask | Report inhibition for CCOC(=O)C1=CN(Cc2ccc(OC)c(OC)c2)C=C(C(=O)OCC)C1c1cccc(Cl)c1 please.
Reply | 78

Ask | Using the record for CCCCCCCCN1C=C(C(=O)OCC)C(c2ccc(OC)cc2)C(C(=O)OCC)=C1 , report its inhibition.
Reply | 25

Ask | Could you share which inhibition value was measured for CCOC(=O)C1=CN(Cc2ccccc2Cl)C=C(C(=O)OCC)C1c1ccccc1 ?
Reply | 33

Ask | Which inhibition reading was recorded for the compound C=CCN1C=C(C(=O)OCC)C(c2ccc(Cl)cc2)C(C(=O)OCC)=C1 ?
Reply | 49.5

Ask | // inhibition lookup, key: CCOC(=O)C1=CN(Cc2ccccc2Cl)C=C(C(=O)OCC)C1c1ccc(OC)cc1
Reply | 58

Where do the numbers come from? From ChEMBL document CHEMBL2311319.
